- Tested on: KM12
- experiment: NCI tumour cell line growth inhibition, 48 h
Active and inactive are the calls of the source. Rule as the data show it: active = GI50 up to about 1.1 µM and inactive = higher.
Respond using exactly one of the listed classes: active, inactive

>>> classassignment("CCOC(=O)/C(C#N)=C/c1ccc(CO)o1")
"inactive"

// return assay outcome for Cc1ccc(SSCCCCS(=O)O)cc1
inactive

// return assay outcome for O=c1[nH]c(=O)n(C2CC(O)C(CO)O2)cc1/N=N/NCCc1ccccc1 (centres undefined)
inactive

// return assay outcome for CCOC(=O)C1NCCc2c1[nH]c1ccccc21 (centres undefined)
inactive

// return assay outcome for COc1ccc2cc(CNCCOCCOCCNCc3ccc4cc(OC)ccc4c3)ccc2c1
active

// return assay outcome for COC1OC(CBr)C(OC(=O)c2ccccc2)C(OS(=O)(=O)c2ccc(C)cc2)C1Br (centres undefined)
inactive

---

- System: NCI-H460
- experiment: NCI tumour cell line growth inhibition, 48 h
Activity calls are given as the source filed them. Rule as the data show it: active = GI50 up to about 1.1 µM and inactive = higher.
Reported GI50 values for a set of compounds

Report GI50 for CC(=O)OCC(OC(C)=O)C(OC(C)=O)C(OC(C)=O)C(C=NN(C(C)=O)S(=O)(=O)c1ccc(/C=C2\NC(=O)N(C)C2=O)cc1)OC(C)=O (configuration not stated) please.
22.1 µM (inactive)

Report GI50 for Cc1cccc(NC(=O)C(=O)C(C2OC(=O)c3ccccc32)[N+](=O)[O-])c1C (configuration not stated) please.
6 µM (inactive)

Report GI50 for C[C@H]1[C@@H](c2ccccc2)O[B-](c2ccccc2)(c2ccccc2)[N+]1(C)C please.
> 100 µM (inactive)

Report GI50 for Cc1cn(CCOCCOC(=O)NC(CCCNC(N)=O)C(=O)O)c(=O)[nH]c1=O (configuration not stated) please.
> 100 µM (inactive)

---

- Tested on: 786-0
- experiment: NCI tumour cell line growth inhibition, 48 h
The source made the active and inactive calls. Cut-off read from the data, not from the text of the source: active = GI50 up to about 1.1 µM and inactive = higher.
Reported GI50 values for a set of compounds

>>> assayresult("N#Cc1cnn2cc[nH]c12")
"> 100 µM (inactive)"
>>> assayresult("C=C1CC[C@@H]2C(C)(C)C(O)CCC2(C)C1COc1ccc2ccc(=O)oc2c1 (stereo not given in full)")
"21.5 µM (inactive)"
>>> assayresult("Cc1c(-c2ccccn2)ccc2ccccc12")
"77.3 µM (inactive)"
>>> assayresult("O=C1c2ccccc2-c2c1c(-c1ccc(O)cc1O)nc1ccc3ccccc3c21")
"> 100 µM (inactive)"

Note: attention shifts to another entry.
Record lookup: for 786-0, what GI50 belongs to CCOC(=O)C1(C#N)OC(=O)c2cnccc21 (stereo not given) ?
> 100 µM (inactive)

---

- System: MDA-N
- experiment: NCI tumour cell line growth inhibition, 48 h
Activity calls are given as the source filed them. Rule as the data show it: active = GI50 up to about 1.1 µM and inactive = higher.
Respond using exactly one of the listed classes: active, inactive

Some solved cases for reference:
>>> classassignment("C/C(=N\\NC(=S)N1CCN(c2ccccn2)CC1)c1nccs1")
"active"
>>> classassignment("CC(C)c1cccc(=O)c(O)c1")
"inactive"
>>> classassignment("C[C@H](CCC(=O)NCC(=O)O)[C@H]1CC[C@H]2[C@@H]3[C@H](O)C[C@@H]4C[C@H](O)CC[C@]4(C)[C@H]3CC[C@]12C")
"inactive"

// return assay outcome for C=CCC1=CC2(OC)C(=O)C(OC)(OC)C1C1C(OC)(OC)C(=O)C(OC)=CC12CC=C (configuration not stated)
inactive

// return assay outcome for COc1c(Cl)ccc(Cl)c1-c1nnc(-c2c(Cl)c(Cl)c(Cl)c(Cl)c2-c2nc3cc(C(=O)c4ccccc4)ccc3[nH]2)o1
inactive
